Here's a roundup of pKi values tested on Coagulation factor XI (Homo sapiens, UniProt P03951), taken from various published works.
By convention, pKi is the negative base-10 log of a molar concentration.

The following compounds have reported results that may help.
{"columns": ["compound", "value_observed"],
 "data": [
  ["COC(=O)Nc1ccc2c(c1)NC(=O)CCCCC(c1ccc(-c3cc(Cl)ccc3-n3cnnn3)c[n+]1[O-])c1nc-2c[nH]1 (single isomer, unassigned)", 9.29],
  ["C[C@H](NC(=O)[C@@H](COC(C)(C)C)NS(=O)(=O)Cc1ccccc1)C(=O)NCc1ccc(C(=N)N)cc1", 7.52]
]}

Lab note: next compound to report on.
Test system Coagulation factor XI (Homo sapiens, UniProt P03951); read-out pKi; what value for COC(=O)Nc1ccc2c(c1)NC(=O)CCCC[C@@H](C(=O)N1CCC[C@@]3(C1)OC(=O)Nc1ccc(Cl)cc13)c1nc-2c[nH]1 ?
8.56
